Target: FAAH (Mus musculus)
Sequence (O08914 1-579): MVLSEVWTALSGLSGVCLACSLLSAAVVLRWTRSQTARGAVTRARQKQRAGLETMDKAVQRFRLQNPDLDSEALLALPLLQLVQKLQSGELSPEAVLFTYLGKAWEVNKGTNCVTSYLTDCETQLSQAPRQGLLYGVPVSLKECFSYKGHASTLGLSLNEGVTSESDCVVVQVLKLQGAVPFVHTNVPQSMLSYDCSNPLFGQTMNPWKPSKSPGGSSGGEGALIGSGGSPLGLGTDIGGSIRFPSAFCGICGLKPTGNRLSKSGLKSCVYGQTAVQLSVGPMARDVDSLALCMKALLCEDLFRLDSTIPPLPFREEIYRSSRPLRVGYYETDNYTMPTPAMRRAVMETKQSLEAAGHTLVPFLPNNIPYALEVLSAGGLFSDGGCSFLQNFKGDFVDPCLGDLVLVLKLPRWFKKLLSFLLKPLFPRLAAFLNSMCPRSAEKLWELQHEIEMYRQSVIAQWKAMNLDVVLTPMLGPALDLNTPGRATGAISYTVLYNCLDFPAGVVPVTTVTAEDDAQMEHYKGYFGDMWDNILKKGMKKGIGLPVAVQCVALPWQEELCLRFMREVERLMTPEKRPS
parameter: IC50 (nM)
Kindly provide the numeric value in nM only, without the unit symbol.

Reported IC50 ( O=C(Nc1cccnn1)N1CCC(=Cc2cccc(Oc3ccc(OCCF)cn3)c2)CC1 ) = 16
